- Test system: MDA-N
- Assay name: NCI tumour cell line growth inhibition, 48 h
Result type: TGI

# compound C=C/C(C)=C\CC1[C@](C)(O)CC[C@H]2C(C)(C)C(O)CC[C@]12C (stereo not given in full) ; its TGI = > 100 µM

----------
# TGI per record follows
- Tested on: BT-549 breast
- Assay name: NCI tumour cell line growth inhibition, 48 h
Quick note: give the figure in µM, leave out the unit.

Recorded results for 2 compounds are shown here.
[[record]]
compound = "COc1cc2cc(C(=O)Nc3cc4n(n3)-c3ccccc3C4)[nH]c2c(OC)c1OC"
result_type = "TGI"
display_unit = "µM"
number = 3.57

[[record]]
compound = "Cc1c2c(OCC(O)CN3CCN(c4ccccc4)CC3)nn(C)c(=O)c2c(C)n1-c1ccccc1 (stereo not given)"
result_type = "TGI"
display_unit = "µM"
number = 47.6


// next entry
Item COc1ccc(-c2cc(-c3ccc(O)cc3O)c(C#N)c(=O)[nH]2)cc1 was tested on BT-549 breast; the reported TGI is 55.9

----------
- System: HL-60(TB) leukemia
- Assay name: NCI tumour cell line growth inhibition, 48 h
Result type: GI50

[[record]]
compound = "C[C@]12CC[C@@H]3c4cc(OC(F)F)c(OS(N)(=O)=O)cc4CC[C@H]3[C@@H]1CC[C@@H]2OS(N)(=O)=O"
result = "829 nM"


# compound N#Cc1c(N2CCOCC2)nc(=S)[nH]c1-c1ccccc1 ; its GI50 = 15300 nM

# compound O=[N+]([O-])c1ccc(C2CC(c3ccccc3)=Nc3ccccc3S2)cc1 (centres undefined) ; its GI50 = > 100000 nM

# compound CCN1C(=O)N(CC)C2C1NN=c1s/c(=C\c3ccco3)c(=O)n12 (centres undefined) ; its GI50 = 284 nM

# compound C[C@@H](NC(=O)/C(C#N)=C/c1ccc([N+](=O)[O-])cc1)c1ccccc1 ; its GI50 = 2420 nM

# compound O=C(/C(=C/c1ccc([N+](=O)[O-])cc1)SCc1ccc(Cl)cc1)c1ccc(F)cc1 ; its GI50 = 2820 nM

# compound CCCCCCn1c(-c2ccc(C(=O)O/N=C(\N)c3ccc4ccccc4c3)cc2)nc(-c2ccccc2)c1-c1ccccc1 ; its GI50 = 1330 nM

# compound COCCNc1ccc2c3c(cccc13)C(=O)N(CCN(C)C)C2=O ; its GI50 = 6780 nM

# compound CCOC(=O)c1cc(C(=O)c2cc(OC)c(OC)c(OC)c2)n2c1ccc1ccccc12 ; its GI50 = 338 nM

# compound COc1ccc(Nc2cc(C)nc(NCc3ccccc3)n2)cc1 ; its GI50 = 4910 nM

# compound Cc1ccc(-c2cc3c4c(nc5ccccc53)C(=O)c3cccnc3-c4n2)cc1 ; its GI50 = 1350 nM

# compound Cc1cc(O)cc(C)c1/C=C/c1cncc(C(N)=O)c1 ; its GI50 = 2290 nM

# compound N=C(N)SCc1c2ccccc2c(CSC(=N)N)c2ccccc12 ; its GI50 = 4060 nM

# compound CCCCCCCCC/C(=N\NC(=O)c1ccncc1)c1ccc(O)c(O)c1O ; its GI50 = 288 nM

----------
- Tested on: KM20L2 colon
- Assay name: NCI tumour cell line growth inhibition, 48 h
Result type: TGI

Item Cc1nn2c(nc1=O)sc1ccc3ccccc3c12 was tested on KM20L2 colon; the reported TGI is > 100 µM

// data source = PubChem BioAssay (NCI)
